# assayed.target: SMARCA2 (Homo sapiens)
# Sequence (P51531 whole entry): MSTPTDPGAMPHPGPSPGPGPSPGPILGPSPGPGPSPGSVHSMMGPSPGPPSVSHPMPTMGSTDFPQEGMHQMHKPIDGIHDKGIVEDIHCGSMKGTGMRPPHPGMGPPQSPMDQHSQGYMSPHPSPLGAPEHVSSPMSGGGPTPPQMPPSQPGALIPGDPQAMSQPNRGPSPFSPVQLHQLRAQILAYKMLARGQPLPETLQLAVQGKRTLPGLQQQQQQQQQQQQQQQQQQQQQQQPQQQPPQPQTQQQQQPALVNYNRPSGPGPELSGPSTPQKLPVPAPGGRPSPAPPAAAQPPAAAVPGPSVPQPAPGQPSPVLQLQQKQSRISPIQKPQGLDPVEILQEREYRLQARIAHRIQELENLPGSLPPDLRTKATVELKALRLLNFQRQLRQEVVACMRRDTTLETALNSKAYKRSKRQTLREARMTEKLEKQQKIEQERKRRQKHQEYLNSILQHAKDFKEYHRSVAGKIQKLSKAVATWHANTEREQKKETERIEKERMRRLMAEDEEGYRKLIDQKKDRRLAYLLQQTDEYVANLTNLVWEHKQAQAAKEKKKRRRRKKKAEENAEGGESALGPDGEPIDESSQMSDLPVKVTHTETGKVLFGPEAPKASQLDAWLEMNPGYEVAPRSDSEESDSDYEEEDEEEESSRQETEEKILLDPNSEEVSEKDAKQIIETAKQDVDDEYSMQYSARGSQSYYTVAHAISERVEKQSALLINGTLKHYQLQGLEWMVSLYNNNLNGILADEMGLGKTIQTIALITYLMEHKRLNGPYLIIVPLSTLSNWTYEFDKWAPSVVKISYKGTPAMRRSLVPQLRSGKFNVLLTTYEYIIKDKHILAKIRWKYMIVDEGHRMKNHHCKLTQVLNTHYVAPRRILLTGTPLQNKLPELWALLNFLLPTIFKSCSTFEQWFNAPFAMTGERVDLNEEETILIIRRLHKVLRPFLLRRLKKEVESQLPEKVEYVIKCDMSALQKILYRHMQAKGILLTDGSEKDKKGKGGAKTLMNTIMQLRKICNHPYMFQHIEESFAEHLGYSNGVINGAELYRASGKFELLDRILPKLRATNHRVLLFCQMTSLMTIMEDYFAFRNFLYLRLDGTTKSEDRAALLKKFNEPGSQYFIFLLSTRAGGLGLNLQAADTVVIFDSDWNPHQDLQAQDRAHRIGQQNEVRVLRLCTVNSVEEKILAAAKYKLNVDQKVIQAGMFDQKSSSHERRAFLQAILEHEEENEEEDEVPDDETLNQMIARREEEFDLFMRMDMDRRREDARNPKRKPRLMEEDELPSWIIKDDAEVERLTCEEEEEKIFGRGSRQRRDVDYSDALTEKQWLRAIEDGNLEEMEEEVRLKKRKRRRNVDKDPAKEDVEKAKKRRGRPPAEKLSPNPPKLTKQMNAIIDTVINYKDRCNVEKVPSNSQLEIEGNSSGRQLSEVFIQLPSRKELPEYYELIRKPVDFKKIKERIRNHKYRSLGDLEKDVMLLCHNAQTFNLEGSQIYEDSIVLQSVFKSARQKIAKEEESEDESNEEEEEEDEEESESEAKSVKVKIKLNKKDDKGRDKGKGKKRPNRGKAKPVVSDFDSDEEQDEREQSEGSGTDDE
# experimental.details: SMARCA2 Western blot degradation in MV4-11 cells
# Type: cell-based
# Design: SMARCA2/SMARCA4 protein degradation selectivity in MV4-11 cells; endogenous in cells; host or cells: MV4-11
# condition.description: MV4-11 cells, 24 h; read-out: SMARCA2 MSD MV411 degradation 24 h: Mean external-Abs DC50
measurement.label: DC50

Field: example entries. Status: answers known.
compound	DC50
C#Cc1ccc([C@H](C)NC(=O)[C@@H]2C[C@@H](O)CN2C(=O)[C@@H](c2cc(OCCN3CCN4c5cc(-c6ccccc6O)nnc5NC[C@H]4C3)no2)C(C)C)cc1 (single isomer, unassigned)	1 to 10 nM
C#Cc1ccc(CNC(=O)[C@@H]2C[C@@H](O)CN2C(=O)[C@H](NC(=O)N2CC3(CC(N4CCC(c5cnc(N6CCc7[nH]c8nnc(-c9ccccc9O)cc8c7[C@H]6C)nc5)CC4)C3)C2)C(C)(C)CCN2CCN[C@@H](C(=O)O)C2)cc1	> 100 nM
C#Cc1ccc(CNC(=O)[C@@H]2C[C@@H](O)CN2C(=O)[C@@H](NC(=O)[C@H]2CCC3(CC2)C[C@H](N2CCC(c4cnc(N5CCN6c7cc(-c8ccccc8O)nnc7NC[C@H]6C5)nc4)CC2)C3)C(C)(C)C)cc1 (single isomer, unassigned) [I-25]	< 1 nM
C#Cc1ccc(CNC(=O)[C@@H]2C[C@@H](O)CN2C(=O)[C@@H](NC(=O)[C@H]2CCC3(CC2)C[C@H](N2CCC(N4CCC(N5CCN6c7cc(-c8ccccc8O)nnc7NC[C@H]6C5)CC4)CC2)C3)C(C)(C)C)cc1 (single isomer, unassigned) [I-174]	10 to 100 nM
Cc1ncsc1-c1ccc(CNC(=O)[C@@H]2C[C@@H](O)CN2C(=O)[C@@H](NC(=O)C2(F)CC2)C(C)(C)C)c(OC2CCN(Cc3cnc(N4CCc5[nH]c6nnc(-c7ccccc7O)cc6c5[C@H]4C)nc3)CC2)c1 (single isomer, unassigned)	10 to 100 nM

Lab note: measured DC50 of Cc1ncsc1-c1ccc(CNC(=O)[C@@H]2C[C@@H](O)CN2C(=O)[C@@H](NC(=O)N2CC3(CCC(N4CCC(c5cnc(N6CCc7[nH]c8nnc(-c9ccccc9O)cc8c7[C@@H]6C)nc5)CC4)CC3)C2)C(C)(C)C)cc1 (single isomer, unassigned) was 10 to 100 nM

Lab note: measured DC50 of `Cc1ncsc1-c1ccc(CNC(=O)[C@@H]2C[C@@H](O)CN2C(=O)[C@@H](NC(=O)N2CC3(CC(N4CCC(c5cnc(N6CCc7[nH]c8nnc(-c9ccccc9O)cc8c7[C@H]6C)nc5)CC4)C3)C2)C(C)(C)C)cc1` was 1 to 10 nM

Lab note: measured DC50 of C#Cc1ccc(CNC(=O)[C@@H]2C[C@@H](O)CN2C(=O)[C@@H](NC(=O)[C@H]2CC3(C2)C[C@H](N2CCC(N4CCC(N5CCN6c7cc(-c8ccccc8O)nnc7NC[C@H]6C5)CC4)CC2)C3)C(C)(C)C)cc1 (single isomer, unassigned) was 1 to 10 nM

Origin of measurements: patent US20250170248A1
